test: SAD study NP10679-101, plasma pharmacokinetics; type: in vivo, human; conditions: human, plasma, iv, 15 mg, Cohort 2, 15 mg single IV; read-out: Cmax
EXPERIMENTAL ENDPOINT: Cmax

• O=C1CCc2cc(OC[C@H](O)CN3CCN(c4ccc(C(F)(F)F)cc4)CC3)ccc2N1 = 0.0992 µg/mL

###

assay: SAD study NP10679-101, plasma pharmacokinetics; type: in vivo, human; details: human, plasma; Cohort 4, 100 mg single IV, harmonic mean; read-out: T1/2* (converted)
EXPERIMENTAL ENDPOINT: half-life (h)

* O=C1CCc2cc(OC[C@H](O)CN3CCN(c4ccc(C(F)(F)F)cc4)CC3)ccc2N1 | 19.8
